target: human glucagon-like peptide 1 receptor (human, UniProt P43220 24-463); test: cell-based or functional assay
Where no end group is shown, it is not given here. [ ]: non-standard residue; d: D form. Aib = CC(C)(N)C(=O)O
The following binders are listed with their measured hGLP-1R CRE Luc EC50 (pM) values.
Respond with the bare value in pM.

Completed entries (count: 5):
binder: Y[Aib]QGTFTSDYSIYLDKQAAKEFVNWLLAGGPSSGAPPPS-NH2 (not fully specified (residue 20); printed as Y-Aib-QGTFTSDYSIYLDKQAA-K[2-[2-[2-[[2-[2-[2-[[(4S)-4-carboxy-4-(17-carboxyheptadecanoylamino)butanoyl]amino]ethoxy]ethoxy]acetyl]amino]ethoxy]ethoxy]acetyl]-EFVNWLLAGGPSSGAPPPS-NH2) [Compound No. 60]
observed_property: hGLP-1R CRE Luc EC50 (pM)
quantitative_result: 14.9
//
binder: Y[Aib]QGTFTSDYSIKLDKQAA[Aib]EFVNWLLAGGPSSGAPPPS-NH2 (not fully specified (residue 13)) [Compound No. 62]
observed_property: hGLP-1R CRE Luc EC50 (pM)
quantitative_result: 36
//
binder: Y[Aib]QGTFTSDYSIYLDKQAA[Aib]EFVNWLLAGGPSSGKPPPS-NH2 (not fully specified (residue 35)) [Compound No. 66]
observed_property: hGLP-1R CRE Luc EC50 (pM)
quantitative_result: 12
//
binder: Y[Aib]QGTFTSDYSIYLDKQAA[Aib]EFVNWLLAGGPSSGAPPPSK-NH2 (not fully specified (residue 40)) [Compound No. 59]
observed_property: hGLP-1R CRE Luc EC50 (pM)
quantitative_result: 11.7
//
binder: Y[Aib]QGTFTSDYSIYLDKQAA[Aib]EFVNWLLAGGPSSGAPPPS-NH2 (not fully specified (residue 16); printed as Y-Aib-QGTFTSDYSIYLD-K[2-[2-[2-[[2-[2-[2-[[(4S)-4-carboxy-4-(17-carboxyheptadecanoylamino)butanoyl]amino]ethoxy]ethoxy]acetyl]amino]ethoxy]ethoxy]acetyl]-QAA-Aib-EFVNWLLAGGPSSGAPPPS-NH2) [Compound No. 1]
observed_property: hGLP-1R CRE Luc EC50 (pM)
quantitative_result: 8.6

Input: Retrieve hGLP-1R CRE Luc EC50 (pM) measured for Y[Aib]QGTFTSDYSIYLDKQAA[Aib]KFVNWLLAGGPSSGAPPPS-NH2 (not fully specified (residue 21); printed as Y-Aib-QGTFTSDYSIYLDKQAA-Aib-K[2-[2-[2-[[2-[2-[2-[[(4S)-4-carboxy-4-(17-carboxyheptadecanoylamino)butanoyl]amino]ethoxy]ethoxy]acetyl]amino]ethoxy]ethoxy]acetyl]-FVNWLLAGGPSSGAPPPS-NH2) [Compound No. 3] and print it.
Output: 5.4

Input: In one line, give reported hGLP-1R CRE Luc EC50 (pM) of the entry Y[Aib]QGTFTSDYSIYLDKQAA[Aib]EFVKWLLAGGPSSGAPPPS-NH2 (not fully specified (residue 24)) [Compound No. 64] .
Output: 45.4

These data points were gathered from patent US20230391845A1.
